Numbers sourced from PubChem BioAssay.

For each entry below, report its composite z-score value.
molecular target: Fibroblast growth factor 10 (Homo sapiens); assay: FGF10 binders on small-molecule microarrays, primary screen, biochemical, small-molecule microarray, 635 nm fluorescence (AID 1102); details: FGF10 binding, fluorescence 635 nm, higher = more signal
One number for each entry.

compound	composite z-score
CCN1C(=O)[C@H]2[C@H]3[C@H](O)[C@H](O)CC(=NOCC=C(C)CCC=C(C)C)[C@@H]3CC[C@H]2C1=O	1.21
COc1ccc(COC(=O)NN=C2C[C@@H](O)[C@@H](O)[C@@H]3[C@@H]4C(=O)N([C@@H](C)c5ccccc5)C(=O)[C@@H]4CC[C@H]23)cc1	-0.227
COC(=O)[C@H](C)NC(=O)CCC1CC(OC(=O)NCc2ccc3c(c2)OCO3)CC2(CCCC(COC(=O)NCCCN3CCCC3=O)O2)O1 (stereo not given in full)	0.601
CC(=O)OC[C@H]1O[C@H](C#CCC2CCCCC2)C=C[C@@H]1OC(C)=O	1.04
CCOC(=O)[C@H](Cc1ccccc1)NC(=O)CCC1CC(OC(=O)NCc2cccc3ccccc23)CC2(CCCC(COC(=O)NCCc3ccccc3OC)O2)O1 (stereo not given in full)	0.791
COC(=O)C(C(=O)OC)C1CCCC(=O)C1 (stereo not given)	0.755
COc1cccc([C@H]2Oc3ccc(OC)cc3C(=NOCC[C@@H]3C=C[C@H](OC(C)=O)[C@@H](COC(C)=O)O3)[C@@H]2O)c1	0.696
CC(C)CON=C1C[C@@H](O)[C@@H](O)[C@@H]2[C@@H]3C(=O)N(C(C)(C)C)C(=O)[C@@H]3CC[C@@H]12	0.156

# return composite z-score for each item in the list
1. COC(=O)CC=C[C@@H](C)[C@@H](C=NOC[C@@H](O)COCc1ccco1)NS(=O)(=O)c1ccc(C)cc1
2. CC(CCC(=O)OC[C@H]1O[C@H](C#Cc2ccccc2)C=C[C@@H]1Oc1ccc(C)cc1)=NOC(C)CN1CCCCc2nc(C)c(C)cc21 (stereo not given in full)
3. CO[C@@H](C1CCCCC1)[C@@H](C)[C@H](OCc1cccc(Br)c1)[C@@H](C)CO
4. COC(=O)[C@H](C)NC(=O)CCC1CC(OC(=O)NCc2cccc3ccccc23)CC2(CCCC(COC(=O)NCCC(C)C)O2)O1 (stereo not given in full)
5. CCCNC(=O)OC[C@H]1O[C@H](CCON=C2c3cc(OC)ccc3O[C@H](c3cccc(OC)c3)[C@H]2O)C=C[C@@H]1Oc1ccc(OC)cc1

Result ::
1: -0.168; 2: 0.0616; 3: 0.512; 4: 0.481; 5: 0.744

Give composite z-score for each of the items listed below.
1. CC(CCN1CCCCc2nc(C)c(C)cc21)=NO[C@H](C)c1cn([C@@H]2COC[C@H]2O)nn1
2. C[C@@H]1CC[C@H]2C(=O)O[C@@H](CN=[N+]=[N-])CN2[C@H]1c1ccc(Br)cc1

Result ::
1: 1.23; 2: 0.382

* * *

experiment: FRG1 promoter luciferase signal modulators, primary screen, FRG1 inhibition for FSHD, cell-based, C2C12 myotubes, firefly/Renilla luciferase, luminescence (AID 1084); details: higher = more signal, called active from +8 up or from −8 down
Label scheme for z-score: lower than 0.3 is not fulfilled, 0.3 and above is fulfilled.

Reference set, count: 6
In [3]: df
Out[3]:
                                   compound      classname
0  C[C@@H](c1ccccc1)N1C(=O)[C@H]2[C@H]3[C@H](O)[C@H](O)CC(=NOCc4ccccc4)[C@@H]3CC[C@H]2C1=O      fulfilled
1  CCOC(=O)[C@H](Cc1ccccc1)NC(=O)CCC1CC(OC(=O)NCCc2ccc(F)cc2)CC2(CCCC(COC(=O)NCCC(C)C)O2)O1 (some centres undefined)  not fulfilled
2  C[C@]12CCC3c4ccc(OCC5CO5)cc4CCC3C1CC[C@@H]2O (some centres undefined)      fulfilled
3  O=C1[C@H]2CCn3c(=O)n(-c4ccccc4)c(=O)n3[C@H]2[C@H](O)[C@@H]2O[C@H]12  not fulfilled
4  COC(=O)[C@H](C)NC(=O)CCC1CC(OC(=O)NCc2cccc3ccccc23)CC2(CCCC(COC(=O)NCCCN3CCCC3=O)O2)O1 (some centres undefined)  not fulfilled
5  CC(C)=NO[C@@H](C)c1cn([C@H](CO)Cc2ccccc2)nn1  not fulfilled

Query :: Please check the record CC(C)=NOC(C)CN1CCCCc2nc(C)c(C)cc21 (centres undefined) and state if its z-score is at or above 0.3.
Result :: not fulfilled

Query :: For this compound, is measured z-score 0.3 or higher? CC(CCN1CCCc2nc(C)c(C)cc21)=NOC[C@@H](C)[C@H](OCc1ccccc1)C(C)C
Result :: not fulfilled

Query :: Can CON(C)C(=O)c1nnc2c(n1)[nH]c1ccccc12 be said to have z-score at or above 0.3?
Result :: fulfilled

* * *

tested on: wheat germ agglutinin (Triticum aestivum), Alexa647-labelled; assay: wheat germ agglutinin binders on compound microarrays, profiling panel, artefact control for SMM control-protein annotation, biochemical, small-molecule microarray, 635/667 nm fluorescence (AID 1140); details: WGA-A647 binding, 635 nm fluorescence, higher = more signal;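 further: score merges 667 nm feature emission with signal to noise over triplicate slides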
endpointName: composite z-score
Numbers only.

Worked examples follow.
>>> df
                                 chemsmiles  numericresult
0  C[C@@H]1CC[C@H]2C(=O)O[C@@H](COc3ccc(C(C)(C)C)cc3)CN2[C@H]1c1ccc(Br)cc1         0.0196
1  CCCNC(=O)OC[C@H]1O[C@H](CCON=C2C[C@@H](O)[C@@H](O)[C@@H]3[C@@H]4C(=O)N(CC)C(=O)[C@@H]4CC[C@@H]23)C=C[C@@H]1Oc1ccc(OC)cc1          0.697
2  O=C1C=C[C@@H](O)[C@@H]2[C@@H]3C(=O)N(Cc4ccc5c(c4)OCO5)C(=O)[C@@H]3CC[C@@H]12         0.0599
3  C[C@@H](c1ccccc1)N1C(=O)[C@H]2[C@H]3[C@H](O)[C@H](O)CC(=NNC(=O)OCc4ccccc4)[C@@H]3CC[C@H]2C1=O         -0.212
4  Cc1ccc2[nH]c3nc(CCCn4ccnc4-c4ccccc4)nnc3c2c1          0.676

Hey, can you go through the list below and give me composite z-score for every item?
1. O=C1[C@H]2[C@H]3[C@H](O)[C@H](O)CC(=NOC[C@@H](O)COCc4ccco4)[C@@H]3CC[C@H]2C(=O)N1C1CCCCC1
2. CCN1C(=O)[C@H]2[C@H]3[C@H](O)[C@H](O)CC(=NOC[C@@H](O)COCc4ccco4)[C@H]3CC[C@H]2C1=O

Result ::
1. -0.284
2. -0.976

* * *

Provide the reported composite z-score of each item.
tested on: glycogen synthase kinase-3 (GSK3A per assay name; protocol says GSK3B); test: GSK3 binders on small-molecule microarrays, primary screen, biochemical, small-molecule microarray, 635 nm fluorescence, GSK3A (AID 1103); conditions: small-molecule microarray binding, fluorescence 635 nm; higher = more signal; further: the record names both GSK3A and GSK3B
Answers are plain numbers.

Observe how each entry below is paired with its result.
>>> print(df.to_string())
                                   compound                             assayedtarget  numericresult
0  COC(=O)[C@H](C)NC(=O)CCC1CC(OC(=O)NCc2ccc3c(c2)OCO3)CC2(CCCC(COC(=O)NCCc3ccc(Cl)cc3)O2)O1 (stereo partly specified)  glycogen synthase kinase-3 (GSK3A per assay name; protocol says GSK3B)          0.591
1  CC(=O)OC[C@H]1O[C@H](CC=NO[C@@H](C)c2cc(-c3c(C)cc(C)cc3C)no2)C=C[C@@H]1OC(C)=O  glycogen synthase kinase-3 (GSK3A per assay name; protocol says GSK3B)          -0.55
2  CC(C)CN1CCc2nc(-c3ccccc3)c3c(c2C1)CO[C@@H](C)C3  glycogen synthase kinase-3 (GSK3A per assay name; protocol says GSK3B)           1.16
3  CO[C@H]1COC(=O)CC=C[C@H](C)[C@H](OC)COC(=O)[C@@H](C)NC(=O)CC=C[C@@H]1C  glycogen synthase kinase-3 (GSK3A per assay name; protocol says GSK3B)          0.507
4  O=C1C2=CC[C@H]3C(=O)N(C4CCCCC4)C(=O)[C@H]3[C@H]2[C@H](O)[C@@H]2O[C@H]12  glycogen synthase kinase-3 (GSK3A per assay name; protocol says GSK3B)          -1.31

// batch mode: one composite z-score value per listed entry
1. COCC#Cc1ccc([C@@H]2N[C@H](C(=O)O)CC[C@H]2C)cc1
2. COc1ccc(OC[C@@H]2CC3[C@@H](c4ccc(Br)cc4)[C@H](C)CC[C@H]3C(=O)O2)cc1 (stereo partly specified)

Result ::
1: 0.223; 2: -0.274
